system: LOX IMVI melanoma; assay: NCI tumour cell line growth inhibition, 48 h
propertyLabel: GI50

Query: Given the compound `CS(=O)(=O)Nc1ccc(N=Cc2c(O)[nH]c3ccccc23)cc1` , what is its reported GI50?
Response: > 25 µM

Query: Given the compound `CC(C)C[C@H](NC(=O)[C@@H](O)[C@H](N)Cc1ccc([N+](=O)[O-])cc1)C(=O)O` , what is its reported GI50?
Response: > 25 µM

Query: Given the compound Nc1n[nH]c2ccc([C@@H]3Nc4ccc5[nH]ncc5c4[C@H]4C5C=CC(C5)[C@@H]34)cc12 (stereo partly specified) , what is its reported GI50?
Response: 0.443 µM

Query: Given the compound `Cn1ccnc1C(=O)/C=C/c1ccc(CC(=O)Nc2ccc(C(F)(F)F)cc2)cc1` , what is its reported GI50?
Response: 2.18 µM

Query: Given the compound COc1ccc2c(c1)C(C)Cc1c(Cl)nc(C)nc1N2C (stereo unspecified) , what is its reported GI50?
Response: 3.12 µM

Query: Given the compound `FC(F)(F)c1ccc(-c2cnc(Cl)nc2NCc2cc(C(F)(F)F)cc(C(F)(F)F)c2)cc1` , what is its reported GI50?
Response: 2.74 µM

Query: Given the compound `CCNCCNc1cc(C2CCCCC2)c(C#N)c2nc3ccccc3n12` , what is its reported GI50?
Response: 0.568 µM

Query: Given the compound `CCOc1ccccc1/C=N\N=C(\N)N/N=C/c1ccccc1OCC` , what is its reported GI50?
Response: 4.68 µM

Query: Given the compound `Nc1c(C(=O)Nc2ccccc2)sc2nc3c(cc12)CN(Cc1ccccc1)CC3` , what is its reported GI50?
Response: 10.5 µM

Query: Given the compound `CSc1ccccc1C#Cc1ccccc1C#CCCCCO` , what is its reported GI50?
Response: 5.87 µM

Query: Given the compound `Nc1nc(N)c(N=O)c(OCC2CCCCC2)n1` , what is its reported GI50?
Response: 4.77 µM

Query: Given the compound CCN1C(=O)N(CC)C2C1NN=c1s/c(=C\c3cc4ccccc4[nH]3)c(=O)n12 (stereo unspecified) , what is its reported GI50?
Response: < 0.01 µM

Query: Given the compound `CC(C)N1C(NNC(=O)c2cnccn2)=NS(=O)(=O)c2ccccc21` , what is its reported GI50?
Response: > 100 µM

Query: Given the compound `CCCOC(=O)CCn1c(SC)nc2[nH]cc(-c3ccccc3)c2c1=O` , what is its reported GI50?
Response: 10.9 µM

Query: Given the compound `Cc1c(Cl)cccc1NC1=C(Cl)C(=O)N(Cc2ccccc2)C1=O` , what is its reported GI50?
Response: 4.83 µM

Query: Given the compound `CCCOc1nc(SCCC)nc2c1cnn2-c1ccccc1` , what is its reported GI50?
Response: > 100 µM

* * *

Assignment: determine reported TGI for the given compounds.
test system: MDA-N; assay: NCI tumour cell line growth inhibition, 48 h

Query: Given the compound Cc1ccc(S(=O)(=O)NNC2(NS(=O)(=O)c3ccc(Cl)cc3)C(Cl)=C(Cl)C(=O)c3ccccc32)cc1 (stereo not given) , what is its reported TGI?
Response: 32.2 µM

Query: Given the compound O=C(O)CC1OCC=C2CN3CCC45C6=CC(=O)C(=O)C([N+](=O)[O-])=C6NC4C1C2CC35 (stereo not given) , what is its reported TGI?
Response: > 100 µM

Query: Given the compound `CC(C)(CO)NC(=O)Nc1c(C(F)(F)F)cc(-c2ccccc2)[nH]c1=O` , what is its reported TGI?
Response: > 100 µM

Query: Given the compound `Cc1ccc(S(=O)(=O)Nn2c(S)c(C#N)c(-c3ccc([N+](=O)[O-])cc3)c(C#N)c2=O)cc1` , what is its reported TGI?
Response: 73.1 µM

Query: Given the compound `CC12c3c4cc(Br)cc3Oc3cc(Br)cc(c31)Oc1cc(Br)cc(c12)O4` , what is its reported TGI?
Response: > 100 µM

Query: Given the compound `O=c1c2cn[nH]c2nc2scc(-c3ccc(Cl)cc3)n12` , what is its reported TGI?
Response: > 100 µM

Query: Given the compound `CCSc1nc(=[N+]2CCCC2)ss1` , what is its reported TGI?
Response: > 100 µM

Query: Given the compound `O=S(=O)(O)c1ccc2c(N=Nc3ccc(F)cc3)c(O)c(S(=O)(=O)O)cc2c1` , what is its reported TGI?
Response: > 100 µM

Query: Given the compound `O=C(Cc1ccccc1)NNc1nc(NNC(=O)c2ccncc2)nc(Nc2cccc(Cl)c2)n1` , what is its reported TGI?
Response: > 10 µM

Query: Given the compound COc1cc2c(cc1OC)C(C)N(C)c1c-2c(OC(C)=O)cc2cc(OC)c(OC)cc12 (stereo not given) , what is its reported TGI?
Response: 38.3 µM

Query: Given the compound Nc1nc(N)c2[nH]cnc2n1 (tested in a mixture with another compound) , what is its reported TGI?
Response: > 100 µM

Query: Given the compound CC1=N[C@](C)(C2CC3C=CC2C3=O)COC1=O (stereo not given in full) , what is its reported TGI?
Response: > 100 µM

Query: Given the compound `O=C1/C(=C/c2ccccc2)CCC/C1=C\c1ccc(O)c(CN2CCCCC2)c1` , what is its reported TGI?
Response: 8.11 µM

Query: Given the compound `CC(C)CCc1n[nH]c(=O)n1/N=C\c1ccccc1` , what is its reported TGI?
Response: > 100 µM

Query: Given the compound `Oc1ccc(/C=C/c2ccc3cccc(O)c3n2)cc1O` , what is its reported TGI?
Response: 44.7 µM

* * *

tested on: U251 CNS; experiment: NCI tumour cell line growth inhibition, 48 h
propertyLabel: TGI

Query: Given the compound `CCOc1ccccc1/C=N\N=C(\N)N/N=C/c1ccccc1OCC` , what is its reported TGI?
Response: > 100 µM

Query: Given the compound `Cc1n[nH]c(=O)n1/N=C\CC/C=N\n1c(C)n[nH]c1=O` , what is its reported TGI?
Response: > 100 µM

Query: Given the compound c1ccc2c(c1)nc1n2C2CCC(C2)N1 (stereo unspecified) , what is its reported TGI?
Response: > 10 µM

Query: Given the compound `CC(C)/C(Cl)=N\OC(=O)Nc1ccc(F)cc1F` , what is its reported TGI?
Response: 32.8 µM

Query: Given the compound `O=C(CCCSc1nc(-c2ccccc2)cc(-c2ccc(Cl)cc2)n1)NO` , what is its reported TGI?
Response: 12.7 µM

Query: Given the compound CCN(CC)CC(C(=O)Nc1c(C)cccc1C)/C(C)=N\NC(=O)c1ccncc1 (stereo unspecified) , what is its reported TGI?
Response: > 100 µM

* * *

test system: UO-31 renal; experiment: NCI tumour cell line growth inhibition, 48 h
Assignment: determine reported log10(TGI) for the given molecules.
A difference of one corresponds to tenfold TGI; all values are log10 with TGI in µM.

Query: Field: log10(TGI) (UO-31 renal). Entry: `COc1ccc(C(=O)/C=C/c2cccnc2)cc1OC`
Response: 1.42

Query: Field: log10(TGI) (UO-31 renal). Entry: `O=C(N/N=C/c1cc([N+](=O)[O-])ccc1O)c1cccc2ccccc12`
Response: 1.29

Query: Field: log10(TGI) (UO-31 renal). Entry: `Cc1ccc2c(c1)-c1c(C#N)c(N)nc(-c3ccccc3)c1CCS2(=O)=O`
Response: 1.99

Query: Field: log10(TGI) (UO-31 renal). Entry: CCN1C(=O)N(CC)C2C1NN=c1s/c(=C\c3cc4ccccc4[nH]3)c(=O)n12 (configuration not stated)
Response: 1.02

Query: Field: log10(TGI) (UO-31 renal). Entry: `O=C1C(=C(I)I)c2ccccc2-c2ccccc21`
Response: 0.67

Query: Field: log10(TGI) (UO-31 renal). Entry: `CCOC(=O)c1nc(Nc2ccc(Cl)cc2)c2ccccc2n1`
Response: 1.27

Query: Field: log10(TGI) (UO-31 renal). Entry: Nc1nc(N)c2[nH]cnc2n1 (tested in a mixture with another compound)
Response: 1.77

Query: Field: log10(TGI) (UO-31 renal). Entry: COc1ccc2c(c1)C(C)Cc1c(Cl)nc(C)nc1N2C (configuration not stated)
Response: 1.56

Query: Field: log10(TGI) (UO-31 renal). Entry: `c1ccc(C2OCCO2)c(OCCOc2cc(OCCOc3ccccc3C3OCCO3)c(OCCOc3ccccc3C3OCCO3)cc2OCCOc2ccccc2C2OCCO2)c1`
Response: 1.73

Query: Field: log10(TGI) (UO-31 renal). Entry: `Cc1[nH]c2ccccc2c1CCNCc1ccc(/C=C/C(=O)NO)cc1`
Response: -1.20

Query: Field: log10(TGI) (UO-31 renal). Entry: `CC(=O)N1N(c2ccc([N+](=O)[O-])cc2)C(=O)C1(C)C`
Response: 1.51

Query: Field: log10(TGI) (UO-31 renal). Entry: `CCN(CC)c1ccc(C(=N)c2ccc(N(C)C)cc2)cc1`
Response: 0.89

Query: Field: log10(TGI) (UO-31 renal). Entry: `O=C1/C(=C/c2ccccc2)CCC/C1=C\c1ccc(O)c(CN2CCCCC2)c1`
Response: 1.29

Query: Field: log10(TGI) (UO-31 renal). Entry: C=C1CCC2[C@@H](CCC3[C@]2(C)CCC[C@]3(C)C(=O)OC)C1CCO (some centres not stated)
Response: 1.50

Query: Field: log10(TGI) (UO-31 renal). Entry: `NC(=O)NC(=O)c1cccc(NC(=O)CF)c1`
Response: 1.91

Query: Field: log10(TGI) (UO-31 renal). Entry: `CSC1(SC2=NCCN2)SC2(NCCN2)S1`
Response: 1.51

Query: Field: log10(TGI) (UO-31 renal). Entry: `COc1cc(C(=O)/C=C/c2cccnc2Nc2ccccc2)cc(OC)c1OC`
Response: 0.41
